# assayed system: anthrax lethal factor (LF) protease (Bacillus anthracis)
# Sequence (P15917 34-809 limits assumed): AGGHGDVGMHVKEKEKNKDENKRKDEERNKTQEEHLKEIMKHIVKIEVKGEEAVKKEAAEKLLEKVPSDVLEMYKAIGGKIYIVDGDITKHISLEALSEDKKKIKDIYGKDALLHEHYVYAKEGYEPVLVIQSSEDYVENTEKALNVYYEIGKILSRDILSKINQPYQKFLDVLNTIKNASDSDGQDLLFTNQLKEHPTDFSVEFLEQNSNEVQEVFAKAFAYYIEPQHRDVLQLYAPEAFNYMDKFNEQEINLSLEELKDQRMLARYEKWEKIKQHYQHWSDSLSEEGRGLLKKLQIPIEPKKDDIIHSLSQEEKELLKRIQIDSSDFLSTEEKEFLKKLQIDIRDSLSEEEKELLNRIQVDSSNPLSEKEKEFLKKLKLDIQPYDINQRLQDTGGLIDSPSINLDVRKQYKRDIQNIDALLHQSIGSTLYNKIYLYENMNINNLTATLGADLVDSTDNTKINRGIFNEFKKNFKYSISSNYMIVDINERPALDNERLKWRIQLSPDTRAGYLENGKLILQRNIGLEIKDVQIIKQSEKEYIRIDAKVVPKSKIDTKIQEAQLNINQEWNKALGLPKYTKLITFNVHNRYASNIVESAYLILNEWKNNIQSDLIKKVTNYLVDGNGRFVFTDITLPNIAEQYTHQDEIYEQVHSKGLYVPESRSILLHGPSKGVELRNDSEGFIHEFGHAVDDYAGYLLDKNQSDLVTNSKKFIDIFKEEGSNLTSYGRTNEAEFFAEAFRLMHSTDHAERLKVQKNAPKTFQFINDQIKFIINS
Where a name gives a salt, the structure may show the parent alone.
One threshold, 0.9 µM, splits the recorded Ki values: lower ones are T, equal or higher ones are F.

>  <compound>
NCCCCN [Putrescine (1,4-diaminobutane), 1,4-diaminobutane]

>  <assigned category>
F

$$$$
>  <compound>
CNC(=O)[C@H](Cc1c[nH]c2ccccc12)NC(=O)[C@@H](CC(=O)NO)CC(C)C [GM 6001]

>  <assigned category>
F

$$$$
>  <compound>
N=C(N)NC[C@H]1O[C@H](O[C@H]2[C@H](O)[C@@H](O)[C@H](NC(=N)N)C[C@@H]2NC(=N)N)[C@H](NC(=N)N)[C@@H](O)[C@@H]1O [Tetraguanyl neamine, free base, Tetraguanyl neamine]

>  <assigned category>
T

$$$$
>  <compound>
NCCCCNCCCN [Spermidine]

>  <assigned category>
F

$$$$
>  <compound>
CN[C@@H]1[C@@H](O)[C@@H](O[C@@H]2[C@@H](O)[C@H](O[C@H]3OC(CN)=CC[C@H]3N)[C@@H](N)C[C@H]2N)OC[C@]1(C)O [Sisomicin Sulfate]

>  <assigned category>
F

$$$$

# ---- query compound ----
Q: Lab note: Ki threshold 0.9 µM. Does this compound come in strictly under it? NC[C@@H]1O[C@H](O[C@H]2[C@@H](O)[C@H](O[C@@H]3[C@@H](O)[C@H](N)C[C@H](N)[C@H]3O[C@H]3O[C@H](CN)[C@@H](O)[C@H](O)[C@H]3N)O[C@@H]2CO)[C@H](N)[C@@H](O)[C@@H]1O [Neomycin B tris-sulfate]
Ans: T

Entry source: paper PMC1513218
